These entries and their values trace back to PubChem BioAssay (NCI).

tested on: CAKI-1 renal; experiment: NCI tumour cell line growth inhibition, 48 h
In this section, each of the compounds is paired with its reported GI50.
measurement-label: GI50

| compound | measurement-label | recorded-result |
| --- | --- | --- |
| COc1ccc2c(c1)C(C)Cc1c(ncnc1-n1cnc3cc(C)ccc31)N2C (centres undefined) | GI50 | 0.0604 µM |
| COC(=O)CCC1=C(CC(=O)OC)C(C)=N/C1=C\c1[nH]c(-c2ccc[nH]2)cc1OC | GI50 | 3.07 µM |
| O=C(CSC(c1ccccc1)c1ccccc1)N/N=C/c1ccco1 | GI50 | 4.7 µM |
| COc1ccc(Cc2cnc(NC(=O)c3ccc4c(c3)OCCO4)s2)cc1 | GI50 | < 0.0123 µM |
| CC[C@@]1(O)C(=O)OCc2c1cc1n(c2=O)Cc2c-1nc1cc(F)c(C)c3c1c2[C@@H](N)CC3 | GI50 | < 0.01 µM |
| S=C1SC2=Nc3ccccc3CN2C2=NCCN12 | GI50 | > 100 µM |
| O=C([CH-]C(=O)c1ccccc1)c1ccccc1.O=C([CH-]C(=O)c1ccccc1)c1ccccc1.[O]=[U+2]=[O] | GI50 | 3.79 µM |
| Nc1ccccc1SC1CC(=O)N(c2ccc(Cl)c(Cl)c2)C1=O (centres undefined) | GI50 | 21.7 µM |
| CC/C=C/C/C=C/C/C=C/C/C=C/C/C=C/C/C=C/CCC(=O)Nc1ccn([C@@H]2O[C@H](CO)[C@@H](O)C2(F)F)c(=O)n1 | GI50 | 0.0341 µM |
